# Target desc: human dopamine D2 (Long form) receptor (Homo sapiens, UniProt P14416)
# Sequence (P14416 whole entry): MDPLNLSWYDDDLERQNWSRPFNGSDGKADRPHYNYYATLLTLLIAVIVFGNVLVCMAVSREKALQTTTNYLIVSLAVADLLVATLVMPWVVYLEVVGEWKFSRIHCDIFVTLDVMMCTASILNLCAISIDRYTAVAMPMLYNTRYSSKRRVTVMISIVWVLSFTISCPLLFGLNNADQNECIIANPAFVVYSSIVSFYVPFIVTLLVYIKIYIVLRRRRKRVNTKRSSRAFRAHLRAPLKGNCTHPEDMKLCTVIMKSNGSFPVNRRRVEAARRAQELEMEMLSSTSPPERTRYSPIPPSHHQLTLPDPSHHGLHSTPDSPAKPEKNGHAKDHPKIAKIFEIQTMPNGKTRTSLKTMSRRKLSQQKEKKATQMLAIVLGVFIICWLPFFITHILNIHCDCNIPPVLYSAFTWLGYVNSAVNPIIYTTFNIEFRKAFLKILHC
# Method summary: [3H]spiperone receptor binding assay, D2 (Long form) (CHO K1 membranes)
# Study conditions: [3H]spiperone 0.2 nM, human D2 (Long form), CHO K1 membranes, 60 minutes at 25° C.; read-out: D2 Ki
# Procedure: A cell line expressing human dopamine D2 (Long form) receptors was purchased from Oregon Health Sciences University, Portland, Ore. The D2 receptor cDNA was subcloned into an expression vector, pRc/CMV. […] Saturation and competition binding data were analyzed using an iterative nonlinear least-square curve-fitting Ligand program. […] To allow these calculations, Kd values were measured for the interaction of various ligands with the receptor. […]
Structures can show the parent of a compound that is named as a salt.
Listed molecules paired with reported Ki

Some molecules with recorded Ki:
- Molecule: "O=c1ccc2ccc(CN3CCN(c4ccccn4)CC3)cc2o1 [Example 25, dihydrochloride]"
  Outcome measure: "Ki"
  Observed result: "> 5.88 µM"
- Molecule: "O=c1ccc2cc(CN3CCN(c4ccc(CO)c(F)c4)CC3)ccc2o1 [Example 40]"
  Outcome measure: "Ki"
  Observed result: "> 5.88 µM"
- Molecule: "O=c1ccc2ccc(CN3CCN(c4cccc(Cl)c4)CC3)cc2o1 [Example 9]"
  Outcome measure: "Ki"
  Observed result: "> 10 µM"
- Molecule: "O=Cc1ccc(N2CCN(Cc3ccc4ccc(=O)oc4c3)CC2)cc1Cl [Example 11]"
  Outcome measure: "Ki"
  Observed result: "> 5.88 µM"
- Molecule: "O=c1ccc2ccc(CN3CCN(c4ccccc4)CC3)cc2o1 [Example 13]"
  Outcome measure: "Ki"
  Observed result: "5.34 µM"

We now examine a further molecule.
Record for Cc1cccc(N2CCN(Cc3ccc4ccc(=O)oc4c3)CC2)c1Cl [Example 20] under target or system human dopamine D2 (Long form) receptor (Homo sapiens, UniProt P14416): Ki reported as 5.88 µM

###

# Target desc: human recombinant dopamine D4.2 receptor (Homo sapiens, UniProt P21917, DEL265-296)
# Construct: expressed in transfected cells
# Sequence (P21917 with tags, fused parts or gaps DEL265-296): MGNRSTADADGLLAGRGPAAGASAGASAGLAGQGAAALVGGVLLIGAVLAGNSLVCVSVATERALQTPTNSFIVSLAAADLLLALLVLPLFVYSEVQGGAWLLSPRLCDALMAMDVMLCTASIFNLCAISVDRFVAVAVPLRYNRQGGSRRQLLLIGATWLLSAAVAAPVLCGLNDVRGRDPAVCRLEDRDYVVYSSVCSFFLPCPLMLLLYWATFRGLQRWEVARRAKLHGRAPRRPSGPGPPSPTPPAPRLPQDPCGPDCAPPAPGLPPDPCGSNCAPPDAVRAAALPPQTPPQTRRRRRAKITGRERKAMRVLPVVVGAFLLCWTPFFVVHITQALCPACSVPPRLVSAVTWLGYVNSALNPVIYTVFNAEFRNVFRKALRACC
# Method summary: [3H]spiperone receptor binding assay, D4.2 (CHO K1 membranes)
# Study conditions: [3H]spiperone 0.2 nM, human D4.2, CHO K1 membranes, 60 minutes at 25° C.; read-out: D4 Ki
Structures can show the parent of a compound that is named as a salt.
Listed compounds paired with reported pKi
Friendly reminder that pKi comes from taking -log10 of the concentration in mol/L.

Some compounds with recorded pKi:
- Compound: "O=c1ccc2ccc(CN3CCN(c4ccc(F)c(C(F)(F)F)c4)CC3)cc2o1"
  pKi: 7.56
- Compound: "O=c1ccc2cc(CN3CCN(c4ccc(CO)c(Cl)c4)CC3)ccc2o1"
  pKi: 7.89
- Compound: "O=c1ccc2cc(CN3CCN(c4ncccn4)CC3)ccc2o1"
  pKi: 6.79
- Compound: "O=c1ccc2cc(CN3CCN(c4ccc(F)cc4)CC3)ccc2o1"
  pKi: 7.39
- Compound: "O=c1ccc2ccc(CN3CCN(c4ccc(CO)c(Br)c4)CC3)cc2o1"
  pKi: 7.40
- Compound: "O=Cc1ccc(N2CCN(Cc3ccc4ccc(=O)oc4c3)CC2)cc1Cl"
  pKi: 7.61

Entry under test: O=c1ccc2ccc(CN3CCN(c4ccccn4)CC3)cc2o1 [Example 25, dihydrochloride] . Its pKi was 7.17

Entry under test: O=c1ccc2cc(CN3CCN(c4ccc(CO)c(Br)c4)CC3)ccc2o1 . Its pKi was 7.90

Entry under test: O=c1ccc2ccc(CN3CCN(c4cccc([N+](=O)[O-])c4)CC3)cc2o1 . Its pKi was 7.59

Entry under test: O=c1ccc2cc(CN3CCN(c4ccccn4)CC3)ccc2o1 [Example 44, dihydrochloride] . Its pKi was 7.53

Entry under test: Cc1cccc(N2CCN(Cc3ccc4ccc(=O)oc4c3)CC2)c1Cl . Its pKi was 7.40

Entry under test: O=c1ccc2ccc(CN3CCN(c4ccccc4Cl)CC3)cc2o1 . Its pKi was 7.77
